Each entry below lists one item and its recorded viability at 28.5 h, 10 µM value.
methodDescription: in vitro
testContext: human, hela cells, % viability
Unit % implied. Number only.

Use the examples below as a reference point.
CCCC1c2cccn2CCN1S(=O)(=O)c1ccc2[nH]c(=O)[nH]c(=O)c2c1 (stereo not shown) = 101
Cn1c(=O)c2c(nc(Oc3ccccc3Cl)n2Cc2cccc(C(F)(F)F)c2)n(C)c1=O = 89.7
CN(C)CCN(Cc1ccccc1)C(=O)NCc1ccc(C#N)cc1 = 89.2

Then there is this compound:
Enquiry: Reported viability at 28.5 h, 10 µM, compound Cc1ccc2nc(-c3ccc(N4C(=O)CC(N5CCC(N6CCCCC6)CC5)C4=O)cc3)sc2c1 (stereo not shown) : ____
Return: 114

###

Each entry below lists one item and its recorded viability at 28.5 h, 10 µM value.
methodDescription: in vitro
testContext: human, hela cells, % viability, bulk resorufin, single well
Unit % implied. Number only.

Use the examples below as a reference point.
COc1ccc(OC(=O)Cc2ccccc2)cc1 [CBK131826] = 117
CCOC(=O)C1(c2ccccc2)CCN(C(=O)CC(C)(C)N)CC1 [CBK137117] = 96.6
CCOC(=O)C1(c2ccccc2)CCN(C(=O)c2ccc3nc[nH]c3c2)CC1 [CBK132208] = 103

Enquiry: Reported viability at 28.5 h, 10 µM, compound O=C(N[C@H]1CCN2C(=O)N(CCCl)C(=O)[C@@H]2C1)c1ccncc1 [CBK289551] : ____
Return: 88.3

Enquiry: Reported viability at 28.5 h, 10 µM, compound CCOC(=O)C1(c2ccccc2)CCN(C(=O)c2ccc(S(N)(=O)=O)cc2)CC1 [CBK132200] : ____
Return: 99.7

###

methodDescription: in vitro
testContext: human, hela cells, % viability
Each entry below lists one item and its recorded viability at 28.5 h, 10 µM value.
Unit % implied. Number only.

Use the examples below as a reference point.
CCOC(=O)Cn1c(CN2CCC(Cc3ccccc3)CC2)nc2c1c(=O)n(C)c(=O)n2C = 89.8
CC(=O)Nc1ccc(CNC(=O)c2ccc(C(F)(F)F)cn2)cc1 = 92
CC1CCc2nc(NC(=O)CC3CCN(C(=O)Cc4ccccc4)CC3)sc2C1 (stereo not shown) = 86.4

Enquiry: Reported viability at 28.5 h, 10 µM, molecule `O=C1CCC[C@]2(CN(C(=O)C3CC3)C[C@H]2c2ccc(F)c(F)c2)N1` : ____
Return: 111

Enquiry: Reported viability at 28.5 h, 10 µM, molecule `CCN1CCN(c2ccc(C(=O)OC)cc2NC(=O)c2ccccc2Cl)CC1` : ____
Return: 98.3

Enquiry: Reported viability at 28.5 h, 10 µM, molecule `Nc1nccc(-c2cc(OCC(F)(F)F)ccc2OCC(F)(F)F)n1` : ____
Return: 94.6

Enquiry: Reported viability at 28.5 h, 10 µM, molecule `CCNC(=O)O[C@@H]1CO[C@H]2[C@@H]1OC[C@@H]2NC(=O)Nc1ccc(C(C)=O)cc1` : ____
Return: 93.5

###

Each entry below lists one item and its recorded viability at 28.5 h, 10 µM value.
methodDescription: in vitro
testContext: human, hela cells, % viability
Unit % implied. Number only.

O=C(NCC1CCCO1)c1ccc(NC(=O)C2C3C=CC(C3)C2C(=O)O)cc1 (stereo not shown) [CBK266317] = 94.9
CCN1C(=O)c2cccc3c(S(=O)(=O)N4CCCC4C(=O)O)ccc1c23 (stereo not shown) [CBK267169] = 109

Enquiry: Reported viability at 28.5 h, 10 µM, compound O=C(O)COCC(=O)N1CCC2(CC1)NC(=O)Cc1c2ccc2ccccc12 [CBK047168] : ____
Return: 88.4

Enquiry: Reported viability at 28.5 h, 10 µM, compound CCCC/C=C/c1cccc(Nc2cccnc2)n1 [CBK037645] : ____
Return: 103

###

methodDescription: in vitro
testContext: human, hela cells, % viability
Each entry below lists one item and its recorded viability at 28.5 h, 10 µM value.
Unit % implied. Number only.

Use the examples below as a reference point.
O=C(Cn1cccn1)Nc1ccc2c(c1)CN(Cc1ccccc1)C2 = 85.6
O=C(CS(=O)(=O)Cc1ccccc1)Nc1ccc(S(=O)(=O)N2CCCCCC2)cc1 = 98.8
Fc1ccc(COc2ccccc2CNCCN2CCOCC2)cc1 [CBK278150C] = 91.5
COc1cccc(C(=O)NNC(=O)c2ccc(F)cc2)c1 = 106

Enquiry: Reported viability at 28.5 h, 10 µM, molecule c1ccc(C(NCc2nnc(-c3ccco3)o2)C2CCC2)cc1 (stereo not drawn) : ____
Return: 84.7

Enquiry: Reported viability at 28.5 h, 10 µM, molecule `Cc1ccc(C(=O)N2CCN(S(=O)(=O)c3sc(C(=O)O)c(C)c3C(=O)O)CC2)cc1` : ____
Return: 91.1

Enquiry: Reported viability at 28.5 h, 10 µM, molecule `COc1ccccc1NC(=O)C(=O)NCCc1c[nH]c2ccccc12` : ____
Return: 108

Enquiry: Reported viability at 28.5 h, 10 µM, molecule `O=C(O)c1cc(-c2c[nH]c3ccc(Cl)cc23)[nH]n1` : ____
Return: 95

Enquiry: Reported viability at 28.5 h, 10 µM, molecule Cn1c(=O)n(C)c2cc(CNC(=O)COCC3CCCCO3)ccc21 (stereo not drawn) : ____
Return: 109

Enquiry: Reported viability at 28.5 h, 10 µM, molecule `CC(C)NC(=O)N[C@H]1CCN2C(=O)c3cc(-c4ccc(F)cc4F)ccc3NC(=O)[C@H]12` : ____
Return: 86.8

###

methodDescription: in vitro
testContext: human, hela cells, % viability
Each entry below lists one item and its recorded viability at 28.5 h, 10 µM value.
Unit % implied. Number only.

C=CCn1c2ccccc2c2nnc(SCc3ccc([N+](=O)[O-])cc3)nc21 [CBK265630] = 92.5
CSCC[C@H](NC(=O)c1cccc2c1-c1ccccc1C2=O)C(=O)O [CBK286781] = 95.5
CCOC(=O)CNS(=O)(=O)c1cccc2cccnc12 [CBK034440] = 115

Enquiry: Reported viability at 28.5 h, 10 µM, molecule CSc1sc(C(=O)NC(=O)N2CCOCC2)c2c1-c1nocc1CC2 [CBK018284] : ____
Return: 74.3

Enquiry: Reported viability at 28.5 h, 10 µM, molecule Clc1ccc2c(c1)NC(c1ccco1)N1CCN=C21 (stereo not shown) [CBK284479] : ____
Return: 84.8

###

Each entry below lists one item and its recorded viability at 28.5 h, 10 µM value.
methodDescription: in vitro
testContext: human, hela cells, % viability
Unit % implied. Number only.

Use the examples below as a reference point.
Cc1ccc(OCC(O)CN2CCN(c3ccccn3)CC2)cc1C (centres unmarked) = 86.9
O=C(CN1CCCCC1)Nc1ccc(NC(=O)CN2CCCCC2)c(Cl)c1 = 111

Enquiry: Reported viability at 28.5 h, 10 µM, compound O=C(Nc1cccc(N2CCNCC2)c1)c1cnc2ccccc2c1 [CBK029415T] : ____
Return: 83.2

Enquiry: Reported viability at 28.5 h, 10 µM, compound `O=C(COc1ccc([N+](=O)[O-])cc1)Nc1ccc(CN2CCCCC2)cc1` : ____
Return: 118

###

Each entry below lists one item and its recorded viability at 28.5 h, 10 µM value.
methodDescription: in vitro
testContext: human, hela cells, % viability
Unit % implied. Number only.

Use the examples below as a reference point.
O=[N+]([O-])c1cccc(-c2noc([C@@H]3C[C@@H](O)CN3C3CCOCC3)n2)c1 [CBK288847] = 101
COc1ccc(NC(=O)CSc2nc3c(N)ncnc3[nH]2)cc1 [CBK218441] = 91.4

Enquiry: Reported viability at 28.5 h, 10 µM, compound Cc1ccc(NS(=O)(=O)c2cccc(C(=O)NS(=O)(=O)c3ccc(F)cc3F)c2)cc1 [CBK297776] : ____
Return: 70.5

###

methodDescription: in vitro
testContext: human, hela cells, % viability
reportedEndpoint: viability at 28.5 h, 10 µM (%)
Unit % implied. Number only.

Use the examples below as a reference point.
CC(Sc1ccccc1)C(=O)NCCCN1CCOCC1 (centres unmarked) [CBK269214] = 106
CCCc1cc(C(=O)N2CCCC(COc3cccc(F)c3)C2)[nH]n1 (centres unmarked) [CBK306776] = 85.3

Enquiry: Reported viability at 28.5 h, 10 µM, compound O=C(c1c[nH]c(C(=O)N2CCN(c3ccccn3)CC2)c1)c1ccc(Cl)cc1Cl [CBK107419] : ____
Return: 86.5

###

methodDescription: in vitro
testContext: human, hela cells, % viability
Each entry below lists one item and its recorded viability at 28.5 h, 10 µM value.
Unit % implied. Number only.

Use the examples below as a reference point.
O=S(=O)([O-])CCC[n+]1c(/C=C/Nc2ccccc2)oc2ccc3ccccc3c21 = 114
CC(=O)c1sccc1NS(=O)(=O)c1ccc2ccccc2c1 = 89.5
COc1ccc([N+](=O)[O-])cc1CSc1nnc(COc2ccccc2C)n1C = 93
Cn1c(-c2ccc(CN3CCCC3)cc2)cc2onc(-c3cccnc3)c2c1=O [CBK048501C] = 99.1
COc1cc(OC)nc(Oc2ccc(C(=O)O)cc2)n1 = 106
C=Cn1cccc1C(=O)N1C2CCC1c1cnc3cc(C)nn3c1C2 (stereo not shown) = 89.2
Cc1ccc(-n2nc(-c3ccc(NC(=O)c4ccccc4)cc3)cc2NC(=O)c2ccccc2)cc1 = 92.3
Cc1nnc(SCC(=O)Nc2cc(C(F)(F)F)ccc2N2CCOCC2)o1 = 109

Enquiry: Reported viability at 28.5 h, 10 µM, compound COCC1CCCN1C(=O)c1cnn2c(C)c(Cc3ccccc3)c(C)nc12 (stereo not shown) : ____
Return: 93.9

Enquiry: Reported viability at 28.5 h, 10 µM, compound O=C(Nc1cc2ccccc2c(N2CCNCC2)n1)c1cnccn1 [CBK036346T] : ____
Return: 95.4

Enquiry: Reported viability at 28.5 h, 10 µM, compound `O=C(c1cc[nH]n1)N1CCc2nc(-c3cccc(F)c3)sc2C1` : ____
Return: 84.9

Enquiry: Reported viability at 28.5 h, 10 µM, compound NCCSC1CC(=O)N(Cc2cccs2)C1=O (stereo not shown) [CBK269047C] : ____
Return: 92.3

Enquiry: Reported viability at 28.5 h, 10 µM, compound Cc1cnn(CC(=O)N2CCCC(COc3ccccc3F)C2)c1 (stereo not shown) : ____
Return: 102

The reported numbers originate from paper PMC12040169.
